- Tested on: Acinetobacter calcoaceticus ATCC 15473
- protocol-text: minimal inhibitory concentration, two-fold agar dilution
- Type: cell-based
- conditions: ATCC15473, Muller-Hinton agar, 37°C, 20 hours, read-out: MIC values against the standard strains
endpoint: MIC (µg/mL)
API: value field is a number in µg/mL; no unit string.

Before answering, review these 5 worked examples.
> print(dat)
                            smiles.notation  observed
1  CCO/N=C(\C(=O)N[C@@H]1C(=O)N2C(C(=O)[O-])=C(CSc3nc(N)c4ccccc4[n+]3C)CS[C@H]12)c1csc(N)n1        16
2  Cc1c[n+](N)c(SCC2=C(C(=O)[O-])N3C(=O)[C@@H](NC(=O)/C(=N\OC(C)(C)C(=O)O)c4csc(N)n4)[C@H]3SC2)nc1N        16
3  CCO/N=C(\C(=O)N[C@@H]1C(=O)N2C(C(=O)[O-])=C(CSc3nc(N)c4cccnc4[n+]3C)CS[C@H]12)c1csc(N)n1        16
4  C[n+]1cc(-c2ccccc2)c(N)nc1SCC1=C(C(=O)[O-])N2C(=O)[C@@H](NC(=O)/C(=N\OC(C)(C)C(=O)O)c3csc(N)n3)[C@H]2SC1        32
5  C[C@@H](O/N=C(\C(=O)N[C@@H]1C(=O)N2C(C(=O)[O-])=C(CSc3nc(N)c(N)c(N)[n+]3C)CS[C@H]12)c1csc(N)n1)C(=O)O         8

The recorded MIC for entry CC(C)(O/N=C(\C(=O)N[C@@H]1C(=O)N2C(C(=O)[O-])=C(CSc3nc(N)cc[n+]3N)CS[C@H]12)c1csc(N)n1)C(=O)O equals 2

Each recorded value in this set is attributed to patent EP0584797A2.
